yeast fitness (ln) overview
B1: tRNA (parent)
chain: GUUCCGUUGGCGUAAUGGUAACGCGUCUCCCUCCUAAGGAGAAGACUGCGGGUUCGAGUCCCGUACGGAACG

# Variants of: B1
# Test Details: yeast fitness, log relative to wild type (ln ratio); higher = fitter; tRNA-Arg(CCU), competitive growth, 37 C, 1 M NaCl
Measurement Name: yeast fitness (ln)

1. U2G G6A A43C C46U C66A A70G; -0.169
2. G1A U2C C46U C66U A70U; -0.0818
3. U2C C27U C46U C66A A69G A70G; -0.227
4. G1A U2G A43C C66A A70G C71U; -0.333
5. G1A G6U C27U C66U A70G; -0.391
6. U2C C46U C66U A69G A70U C71U; -0.359
7. G1A G6U C66U A70U C71U; -0.278
8. U2G A43C C46U A70U; 0.00593
9. G1A U2G G6U C27U C46U C66A C71U; -0.175
10. G1A G6A C27U A43C C46U C66U C71U; -0.166
11. G1A G6U C27U A43C C66U C71U; -0.403
